meta.source: patent EP2608671B1

Tested on: PPC-1
ASSAY REMARKS: cells
EXPERIMENTAL PARAMETERS: Homo sapiens, PPC-1, 96 h, read-out: IC50 ± SEM (nM), PPC-1
METRIC NAME: IC50

In the examples that follow, each entry is paired with its recorded IC50.
COc1cc([S+]([O-])c2cccc(-c3ccccc3)c2)cc(OC)c1OC (stereo not drawn)
> 10000 nM
COc1cc(C(=O)c2cn(S(=O)(=O)c3ccccc3)c(-c3cc(OC)c(OC)c(OC)c3)n2)cc(OC)c1OC [11ea]
> 10000 nM
COc1cc(/C(=C\C#N)c2csc(-c3ccccc3)n2)cc(OC)c1OC [2c-cis]
~10000 nM
COc1cc(C(=O)c2csc(-c3ccc(CN(C)C)cc3)n2)cc(OC)c1OC.Cl [2u, hydrochloride]
> 10000 nM
COc1cc(C(=O)c2c[nH]c(-c3ccc(Br)cc3)n2)cc(OC)c1OC [12la]
33 nM
COc1cc(/C(=C/C#N)c2csc(-c3ccccc3)n2)cc(OC)c1OC [2c-trans]
900 nM
Cc1ccc(-c2nc(C(=O)c3ccc(F)cc3)c[nH]2)cc1 [12db]
34 nM
Cc1ccc(-c2nc(C(=O)c3ccc(F)cc3)cn2S(=O)(=O)c2ccccc2)cc1 [11db]
57 nM

Query: Given the compound COc1ccc(-c2nc(C(=O)c3cc(OC)c(OC)c(OC)c3)c[nH]2)cc1 [12ca] , what is its reported IC50?
Response: 34 nM

Query: # query: IC50 of entry COc1cc(C(=O)c2cn(C)c(-c3ccc(C)cc3)n2)cc(OC)c1OC
Response: 28 nM

Query: Report IC50 for COc1cc(C(=O)c2c[nH]c(-c3ccc(N(C)C)cc3)n2)cc(OC)c1OC [12ga] please.
Response: 67 nM

Query: Returns the measured IC50 for the input compound. Input: COc1cc(C(=O)c2c[nH]c(-c3ccc(F)cc3)n2)cc(OC)c1OC [12ba]
Response: 81 nM

Query: GET /values?readout=IC50&item= O=C(c1cc(O)c(O)c(O)c1)c1c[nH]c(-c2ccc(Cl)cc2)n1 [13fa]
Response: > 10000 nM

---

Item-by-item account of IC50
System: PC-3
ASSAY REMARKS: cells
EXPERIMENTAL PARAMETERS: Homo sapiens, PC-3, 96 h, read-out: IC50 ± SEM (nM), PC-3
Give the quantity in nM, number only.

// known answers, use as guide
COc1cc(C(=O)c2c[nH]c(-c3ccc(C)cc3)n2)cc(OC)c1O [12dc]
127
COc1cc(C(=O)c2c[nH]c(-c3ccc(F)cc3)n2)cc(OC)c1OC [12ba]
169
COc1cc(C(=O)c2csc(-c3ccccc3)c2)cc(OC)c1OC [1f]
12

Query: Returns the measured IC50 for the input compound. Input: COc1cc(C(=O)c2cc(-c3ccccc3)ncn2)cc(OC)c1OC [1b]
Response: 8300

Query: # input compound: O=C(c1cc(O)c(O)c(O)c1)c1c[nH]c(-c2ccc(Cl)cc2)n1 [13fa] ; wanted: its IC50
Response: 10000

Query: Which measured IC50 value corresponds to COc1ccc(-c2nc(C(=O)c3ccc(F)cc3)cn2S(=O)(=O)c2ccccc2)cc1OC [11hb] ?
Response: 10000

Query: Item under review: COc1cc(C(=O)c2csc(-c3ccc(CNC(=O)OC(C)(C)C)cc3)n2)cc(OC)c1OC [68a] . Reported IC50?
Response: 3100

Query: Suppose we examine the compound COc1cc(C(=C(C)C)c2csc(-c3ccccc3)n2)cc(OC)c1OC [2a] ; what IC50 value has been reported?
Response: 2470

Query: Using the record for COc1cc(C(=O)c2c[nH]c(-c3ccc(N(C)C)cc3)n2)cc(OC)c1OC [12ga] , report its IC50.
Response: 92

Query: Fill blank: measured IC50 of the compound O=C(c1ccc(F)cc1)c1cn(S(=O)(=O)c2ccccc2)c(-c2ccc(Cl)cc2)n1 [11fb] is ____.
Response: 76

Query: For the compound Cc1ccc(-c2nc(C(=O)c3ccc(F)cc3)cn2S(=O)(=O)c2ccccc2)cc1 [11db] , what IC50 is on record?
Response: 80

Query: Item COc1cc(C(=O)c2cn(Cc3ccccc3)c(-c3ccc(C)cc3)n2)cc(OC)c1OC [12daa] has what recorded IC50?
Response: 466

Query: Fill in the blank: the reported IC50 of CN(C)c1ccc(-c2nc(C(=O)c3ccc(F)cc3)cn2S(=O)(=O)c2ccccc2)cc1 [11gb] is ____.
Response: 83

Query: I have this compound here, COc1cc(C(=O)c2ccc(-c3ccccc3)o2)cc(OC)c1OC [1d] , and I need its recorded IC50.
Response: 21

Query: Consider the compound shown here: COc1cc(C(=O)c2c[nH]c(-c3ccc(Cl)cc3)n2)cc(OC)c1OC [12fa] What is its recorded IC50?
Response: 35

---

System: DU 145
ASSAY REMARKS: cells
EXPERIMENTAL PARAMETERS: Homo sapiens, DU-145, 96 h, read-out: IC50 ± SEM (nM), DU 145
The entries below come with measured IC50 values attached.

Below, 2 compounds whose answers are already recorded.
COc1cc(S(=O)(=O)c2cccc(-c3ccccc3)c2)cc(OC)c1OC
> 10000 nM
CNCc1ccc(-c2nc(C(=O)c3cc(OC)c(OC)c(OC)c3)cs2)cc1.Cl [2s, hydrochloride]
~10000 nM

Query: Please give the measured IC50 for this compound: COc1cc(C(=O)c2cnc(-c3ccccc3)s2)cc(OC)c1OC
Response: > 10000 nM

Query: Fill in the blank: the reported IC50 of COc1cc(/C(=C\C#N)c2csc(-c3ccccc3)n2)cc(OC)c1OC [2c-cis] is ____.
Response: ~10000 nM

Query: Request the reported IC50 associated with COc1cc(/C(=N\O)c2csc(-c3ccccc3)n2)cc(OC)c1OC [2e-trans]
Response: > 10000 nM

Query: Please give the measured IC50 for this compound: COc1cc(C(=O)c2csc(-c3ccc(CN(C)C)cc3)n2)cc(OC)c1OC.Cl [2u, hydrochloride]
Response: > 10000 nM

---

Tested on: DU 145
ASSAY REMARKS: cells
EXPERIMENTAL PARAMETERS: Homo sapiens, DU-145, 96 h, read-out: IC50 ± SEM (nM), DU 145
METRIC NAME: IC50

Illustrative cases are given below, each with its answer.
CO/N=C(\c1cc(OC)c(OC)c(OC)c1)c1csc(-c2ccccc2)n1 [2f-trans]
> 10000 nM
COc1cc(Sc2cccc(-c3ccccc3)c2)cc(OC)c1OC [4a]
> 10000 nM
COc1cc(/C=C/c2csc(-c3ccccc3)n2)cc(OC)c1OC [3b]
> 10000 nM
CO/N=C(/c1cc(OC)c(OC)c(OC)c1)c1csc(-c2ccccc2)n1 [2f-cis]
> 10000 nM

Query: Which value of IC50 has been reported for c1ccc(Nc2nccn2C(c2ccccc2)(c2ccccc2)c2ccccc2)cc1 [d, N-Phenyl-1-trityl-1H-imidazol-2-amine] in the records?
Response: > 1000 nM

Query: Query (compound): COc1cc([S+]([O-])c2cccc(-c3ccccc3)c2)cc(OC)c1OC (centres unmarked) [4c] ; field requested: IC50
Response: > 10000 nM

Query: So what does the record say about IC50 for COc1cc(C(=O)c2cn(C(c3ccccc3)(c3ccccc3)c3ccccc3)c(Nc3ccccc3)n2)cc(OC)c1OC [e] ?
Response: > 1000 nM

Query: What does the data say about its IC50? Entry: COc1cc(-c2csc(-c3ccccc3)n2)cc(OC)c1OC [2i]
Response: > 10000 nM

---

Test system: B16-F1
ASSAY REMARKS: SRB cell growth inhibition (cytotoxicity) assay
Type: cell-based, mouse
EXPERIMENTAL PARAMETERS: Mus musculus; B16-F1 melanoma cells, 48 h, SRB; read-out: IC50 ± SEM (nM) B16-F1
METRIC NAME: IC50

Below, each entry is followed by its recorded IC50 result.
COc1cc(C(=O)c2c[nH]c(-c3ccc(C)cc3)n2)cc(OC)c1O [12dc]
387 nM
O=C(c1ccc(F)cc1)c1c[nH]c(-c2ccccc2C(F)(F)F)n1 [12ib]
> 10000 nM
O=C(c1cc(O)c(O)c(O)c1)c1c[nH]c(-c2cc(O)c(O)c(O)c2)n1 [13ea]
> 10000 nM
COc1ccc(S(=O)(=O)n2cc(C(=O)c3ccc(F)cc3)nc2-c2ccc(N(C)C)cc2)cc1
~100 nM
COc1ccc(-c2nc(C(=O)c3ccc(F)cc3)cn2S(=O)(=O)c2ccccc2)cc1OC [11hb]
2000 nM
O=C(c1ccc(F)cc1)c1cn(S(=O)(=O)c2ccccc2)c(-c2ccc(Cl)cc2)n1 [11fb]
107 nM
CN(C)c1ccc(-c2nc(C(=O)c3ccc(F)cc3)cn2S(=O)(=O)c2ccccc2)cc1 [11gb]
242 nM
COc1ccc(-c2nc(C(=O)c3cc(OC)c(OC)c(OC)c3)cn2S(=O)(=O)c2ccccc2)cc1OC [11ha]
970 nM
COc1ccc(-c2nc(C(=O)c3ccc(F)cc3)cn2C)cc1
> 10000 nM
COc1cc(C(=O)c2cn(S(=O)(=O)c3ccccc3)c(-c3cc(OC)c(OC)c(OC)c3)n2)cc(OC)c1OC [11ea]
> 10000 nM

Query: I'd like to know its IC50. The compound in question is COc1cc(C(=O)c2cn(S(=O)(=O)c3ccccc3)c(-c3ccc(N(C)C)cc3)n2)cc(OC)c1OC [11ga]
Response: 1200 nM

Query: Report IC50 for O=C(c1ccc(F)cc1)c1cn(S(=O)(=O)c2ccccc2)c(-c2ccc(OCc3ccccc3)cc2)n1 [11jb] please.
Response: 110 nM

Query: IC50; subject: COc1cccc(C(=O)c2cn(S(=O)(=O)c3ccccc3)c(-c3ccccc3)n2)c1 [11ac]
Response: > 10000 nM
